test: Plasma pharmacokinetics of 5-FU in rats with or without MMP-8 inhibitor before whole pelvic irradiation 2 Gy; type: in vivo, Sprague-Dawley rats; details: Sprague-Dawley, rat, plasma, iv, 100 mg/kg, plasma, 5-FU 100 mg/kg i.v., whole pelvic irradiation 2 Gy with solvent and MMP-8 inhibitor (10 mg/kg, 2 h before irradiation), read-out: Vss
Measured parameter: Vd (L/kg)
Report the value in L/kg with no unit label.

Let me know recorded Vd for O=c1[nH]cc(F)c(=O)[nH]1 , thanks. 0.911

* * *

experiment: Plasma pharmacokinetics of 5-FU in rats with or without MMP-8 inhibitor before whole pelvic irradiation 2 Gy; assay type: in vivo, Sprague-Dawley rats; conditions: Sprague-Dawley, rat, plasma, iv, 100 mg/kg, 5-FU 100 mg/kg i.v., controls with solvent
Measured parameter: Cmax (µg/mL)
Report the value in µg/mL with no unit label.

Let me know recorded Cmax for O=c1[nH]cc(F)c(=O)[nH]1 [5-FU, 5-fluorouracil] , thanks. 146
